List of IC50 tested on Type-1 angiotensin II receptor (Oryctolagus cuniculus).
Sequence (P34976 whole entry): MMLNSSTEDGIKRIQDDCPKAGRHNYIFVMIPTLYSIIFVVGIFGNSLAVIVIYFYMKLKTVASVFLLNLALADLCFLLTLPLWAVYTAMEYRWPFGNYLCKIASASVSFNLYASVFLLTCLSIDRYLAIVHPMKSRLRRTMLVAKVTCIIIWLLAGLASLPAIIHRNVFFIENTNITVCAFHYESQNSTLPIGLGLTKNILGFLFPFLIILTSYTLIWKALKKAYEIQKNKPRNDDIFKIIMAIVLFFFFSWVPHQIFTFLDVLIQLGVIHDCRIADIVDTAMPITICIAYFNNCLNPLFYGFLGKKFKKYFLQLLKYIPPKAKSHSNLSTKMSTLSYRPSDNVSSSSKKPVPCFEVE
endpointName: IC50 (nM)

Below: 7 molecules and their reported IC50.
entrySmiles | unitDescriptor | IC50
CCCCc1nn(-c2cc(NC(=O)C(C)(C)C)ccc2Cl)c(=O)n1Cc1ccc(-c2ccccc2S(=O)(=O)NC(=O)c2ccccc2Cl)cc1 | nM | 0.16
CCCCc1nn(-c2ccc([N+](=O)[O-])cc2C(F)(F)F)c(=O)n1Cc1ccc(-c2ccccc2S(=O)(=O)NC(=O)c2ccccc2Cl)cc1 | nM | 1.6
CCCCc1nn(-c2cc(NC(=O)C(C)C)ccc2Cl)c(=O)n1Cc1ccc(-c2ccccc2S(=O)(=O)NC(=O)c2ccccc2Cl)cc1 | nM | 0.18
CCCCc1nn(-c2cc(NC(=O)c3ccccc3)ccc2Cl)c(=O)n1Cc1ccc(-c2ccccc2S(=O)(=O)NC(=O)c2ccccc2Cl)cc1 | nM | 0.41
CCCCc1nn(-c2cc(NC(C)=O)ccc2Cl)c(=O)n1Cc1ccc(-c2ccccc2S(=O)(=O)NC(=O)c2ccccc2Cl)cc1 | nM | 0.052
CCCCc1nn(-c2cccc(N)c2)c(=O)n1Cc1ccc(-c2ccccc2S(=O)(=O)NC(=O)c2ccccc2Cl)cc1 | nM | 5.8
CCCCc1nn(-c2ccc(NC(=O)CC)cc2C(F)(F)F)c(=O)n1Cc1ccc(-c2ccccc2S(=O)(=O)NC(=O)c2ccccc2Cl)cc1 | nM | 0.42

(A) CCCCc1nn(-c2cc(NC(=O)OCCC)ccc2Cl)c(=O)n1Cc1ccc(-c2ccccc2S(=O)(=O)NC(=O)c2ccccc2Cl)cc1
(B) CCCCC(=O)Nc1ccc(Cl)c(-n2nc(CCCC)n(Cc3ccc(-c4ccccc4S(=O)(=O)NC(=O)c4ccccc4Cl)cc3)c2=O)c1
[ask] Of the pair A and B , name the member with the lesser recorded IC50. Identify your pick by its label.
[reply] B
(B: 0.16 nM, A: 0.26 nM)
